- TARGET: Akt2 (Homo sapiens, UniProt P31751)
- Construct: unspecified tag, removed (detagged) (cleaved yes); purchased SignalChem and Proteros (Akt2); Merck Millipore (PDK1) 14-452 (PDK1); none given for Akt2
- Sequence (P31751 whole entry): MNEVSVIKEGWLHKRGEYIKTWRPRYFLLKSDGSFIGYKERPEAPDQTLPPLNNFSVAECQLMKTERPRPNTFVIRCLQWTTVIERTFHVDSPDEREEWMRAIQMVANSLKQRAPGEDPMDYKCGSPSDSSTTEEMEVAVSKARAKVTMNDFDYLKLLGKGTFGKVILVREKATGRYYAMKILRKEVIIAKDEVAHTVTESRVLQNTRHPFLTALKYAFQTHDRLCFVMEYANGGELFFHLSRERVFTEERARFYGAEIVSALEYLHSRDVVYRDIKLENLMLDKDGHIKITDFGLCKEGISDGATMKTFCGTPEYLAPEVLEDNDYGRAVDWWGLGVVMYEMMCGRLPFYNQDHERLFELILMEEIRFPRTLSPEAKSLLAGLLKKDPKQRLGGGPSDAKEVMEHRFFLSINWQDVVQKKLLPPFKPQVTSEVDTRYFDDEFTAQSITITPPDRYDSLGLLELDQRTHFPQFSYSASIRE
- PROCEDURE TEXT: Akt activation assay (PDK1-mediated activation, LANCE Ultra crosstide TR-FRET), Akt2
- Assay type: biochemical
- COND: read-out: Biological Assay 1 IC50 (nM) Akt2
ENDPOINT LABEL: IC50 (nM)

A: CC(=O)N[C@H]1CC[C@H](CC(=O)Nc2cnc(-c3ccc(C(C)(C)N)cc3)c(-c3ccsc3)c2)CC1
B: CC(C)C(=O)N(C)[C@H]1CC[C@H](CC(=O)Nc2cnc(-c3ccc([C@]4(N)C[C@](C)(O)C4)cc3)c(-c3ccccc3)c2)CC1
C: CN(C(=O)C1CC1)[C@H]1CC[C@H](CC(=O)Nc2cc(-c3ccccc3)c(-c3ccc(C4(N)CCC4)cc3)cn2)CC1
D: COC(=O)N(C(C)C)[C@H]1CC[C@H](CC(=O)Nc2cnc(-c3ccc([C@]4(N)C[C@](C)(O)C4)cc3)c(-c3ccccc3)c2)CC1
E: CN(C(=O)C1CCC1)[C@H]1CC[C@H](CC(=O)Nc2cnc(-c3ccc(C(C)(C)N)cc3)c(-c3ccccc3)c2)CC1
Problem: Reorder the list above by recorded IC50 in ascending order. Returns: the labels arranged in the requested order.
Solution: B, D, C, E, A
(B: 44 nM, D: 160 nM, C: 290 nM, E: 6100 nM, A: 22000 nM)

P: CN(C(=O)C1CC1)[C@H]1CC[C@H](CC(=O)Nc2cnc(-c3ccc(C(C)(C)N)cc3)c(-c3ccsc3)c2)CC1
Q: CCN(C(=O)OC)[C@H]1CC[C@H](CC(=O)Nc2cc(-c3ccccc3)c(-c3ccc([C@]4(N)C[C@](C)(O)C4)cc3)nn2)CC1
R: CC(=O)N(C)[C@H]1CC[C@H](CC(=O)Nc2cc(-c3ccccc3)c(-c3ccc([C@]4(N)C[C@H](F)C4)cc3)cn2)CC1
S: CN(C(=O)C(F)F)[C@H]1CC[C@H](CC(=O)Nc2cnc(-c3ccc(C(C)(C)N)cc3)c(-c3ccccc3)c2)CC1
T: CC(=O)N(C)[C@H]1CC[C@H](CC(=O)Nc2cc(-c3ccccc3)c(-c3ccc([C@]4(N)C[C@](C)(O)C4)c(F)c3)cn2)CC1
Problem: Order the entries by their reported IC50, beginning at the minimum. Returns: the labels arranged in the requested order.
Solution: Q, R, T, S, P

1: COC(=O)N(C)[C@H]1CC[C@H](CC(=O)Nc2cc(-c3ccccc3)c(-c3ccc(C4(N)CC(F)(F)C4)cc3)nn2)CC1
2: NC1(c2ccc(-c3ncc(NC(=O)C[C@H]4CC[C@H](NC(=O)C(F)F)CC4)cc3-c3ccccc3)cc2)CCC1
Problem: Determine, for 1 and 2 , which has the greater value of IC50. Indicate which entry you chose by stating its label.
Solution: 1
(1: 710 nM, 2: 370 nM)
